The values you see were collected from patent US8143288B2.

EC50: recorded values
tested on: HCV 1b-377-neo replicon cells; assay: HCV replicon FRET assay; type: cell-based; conditions: Hepatitis C virus; HCV replicon; read-out: Activity (EC50)

// worked examples, EC50 included
>>> measured_result("O=C(Nc1ccc(/C=C/c2ccc(NC(=O)[C@@H]3CCCN3C(=O)c3cc(F)ccc3F)cc2)cc1)[C@@H]1CCCN1C(=O)c1cc(F)ccc1F [Example 108]")
"0.1 to 1 µM"
>>> measured_result("O=C(Nc1ccc(/C=C/c2ccc(NC(=O)[C@@H]3CCCN3C(=O)C3Cc4ccccc43)cc2)cc1)[C@@H]1CCCN1C(=O)C1Cc2ccccc21 (stereo partly drawn) [Example 116]")
"1 to 10 µM"

Problem: Quick one: EC50 for O=C(Nc1ccc(/C=C/c2ccc(NC(=O)[C@@H]3CCCN3C(=O)[C@@H]3CCCN3Cc3ccccc3)cc2)cc1)[C@@H]1CCCN1C(=O)[C@@H]1CCCN1Cc1ccccc1 [Example 164] ?
Solution: 1 to 10 µM

Problem: How about O=C(NCc1ccccc1)Nc1ccc(/C=C/c2ccc(NC(=O)[C@@H]3CCCN3C(=O)Cc3ccccc3)cc2)cc1 [Example 250C] ?
Solution: 1 to 10 µM

Problem: How about CC(C)(C)O[C@@H]1C[C@@H](C(=O)Nc2ccc(/C=C/c3ccc(NC(=O)[C@@H]4CCCN4C(=O)Cc4ccccc4)cc3)cc2)N(C(=O)OCc2ccccc2)C1 [Example 274] ?
Solution: 0.0001 to 0.09 µM

Problem: How about Cc1ccccc1C(=O)N1CCC[C@H]1C(=O)Nc1ccc(/C=C/c2ccc(NC(=O)[C@@H]3CCCN3C(=O)c3ccccc3C)cc2)cc1 [Example 125] ?
Solution: 0.1 to 1 µM

----------
Test system: HCV 1b-377-neo replicon cells
Experiment: HCV replicon FRET assay
Format: cell-based
Conditions: Hepatitis C virus; HCV replicon; read-out: Activity (EC50)
Description: The HCV replicon cell line was isolated from colonies as described by Lohman, et. al. (Science 1999, 285, 110-113, expressly incorporated by reference in its entirety) and used for all experiments. The HCV replicon has the nucleic acid sequence set forth in EMBL Accession No.: AJ242652, the coding sequence of which is from nt 1801 to 7758. […]
Property label: EC50

// worked examples, EC50 included
>>> measured_result("CC(C)N(C(=O)N1CCC[C@H]1C(=O)Nc1ccc(/C=C/c2ccc(NC(=O)[C@@H]3CCCN3C(=O)N(C(C)C)C(C)C)cc2)cc1)C(C)C [Example 290]")
"0.1 to 90 nM"
>>> measured_result("O=C(Nc1ccc(/C=C/c2ccc(NC(=O)[C@@H]3CCCN3C(=O)Cc3cccc4ccccc34)cc2)cc1)[C@@H]1CCCN1C(=O)Cc1cccc2ccccc12 [Example 181]")
"100 to 1000 nM"

Problem: Quick one: EC50 for CCc1cccc(C)c1C(=O)N1CCC[C@H]1C(=O)Nc1ccc(/C=C/c2ccc(NC(=O)[C@@H]3CCCN3C(=O)c3c(C)cccc3CC)cc2)cc1 [Example 206] ?
Solution: 1000 to 10000 nM

----------
tested on: HCV 1b-377-neo replicon cells; assay: HCV replicon FRET assay; format: cell-based; conditions: Hepatitis C virus; HCV replicon; read-out: Activity (EC50)
Property label: EC50

// worked examples, EC50 included
>>> measured_result("COc1cccc(CC(=O)N2CCC[C@H]2C(=O)Nc2ccc(/C=C/c3ccc(NC(=O)[C@@H]4CCCN4C(=O)Cc4cccc(OC)c4)cc3)cc2)c1 [Example 25]")
"0.1 to 1 µM"
>>> measured_result("O=C(Nc1ccc(/C=C/c2ccc(NC(=O)[C@@H]3CCCN3C(=O)c3ccccc3)cc2)cc1)[C@@H]1CCCN1C(=O)c1ccccc1 [Example 61]")
"0.1 to 1 µM"

Now look at this one.
Problem: Quick one: EC50 for [N-]=[N+]=Nc1ccc(C(=O)N2CCC[C@H]2C(=O)Nc2ccc(/C=C/c3ccc(NC(=O)[C@@H]4CCCN4C(=O)c4ccc(N=[N+]=[N-])cc4)cc3)cc2)cc1 [Example 60] ?
Solution: 1 to 10 µM

----------
pEC50: recorded values
test system: HCV 1b-377-neo replicon cells; assay: HCV replicon FRET assay; assay type: cell-based; conditions: Hepatitis C virus; HCV replicon; read-out: Activity (EC50)
pEC50: −log10 of the molar value.

// worked examples, pEC50 included
>>> measured_result("O=C(Nc1ccc(/C=C/c2ccc(NC(=O)[C@@H]3CCCN3C(=O)[C@H]3CCCO3)cc2)cc1)[C@@H]1CCCN1C(=O)[C@H]1CCCO1")
"7.05 to 10.00"
>>> measured_result("O=C(Nc1ccc(/C=C/c2ccc(NC(=O)[C@@H]3CCCN3C(=O)C3Cc4ccccc43)cc2)cc1)[C@@H]1CCCN1 (stereo partly drawn)")
"5.00 to 6.00"
>>> measured_result("O=C(Nc1ccc(/C=C/c2ccc(NC(=O)[C@@H]3CCCN3C(=O)c3ccccc3-c3ccccc3)cc2)cc1)[C@@H]1CCCN1C(=O)c1ccccc1-c1ccccc1")
"5.00 to 6.00"
>>> measured_result("CC(C)C(=O)N1CC=C[C@H]1C(=O)Nc1ccc(/C=C/c2ccc(NC(=O)[C@@H]3C=CCN3C(=O)C(C)C)cc2)cc1")
"6.00 to 7.00"
>>> measured_result("O=C(Nc1ccc(/C=C/c2ccc(NC(=O)[C@@H]3CCCN3C(=O)Cc3ccccc3Oc3ccccc3)cc2)cc1)[C@@H]1CCCN1C(=O)Cc1ccccc1Oc1ccccc1")
"5.00 to 6.00"

Now look at this one.
Problem: Quick one: pEC50 for "CCC(=O)N1CCC[C@H]1C(=O)Nc1ccc(/C=C/c2ccc(NC(=O)[C@@H]3CCCN3C(=O)c3cccnc3)cc2)cc1" ?
Solution: 7.05 to 10.00

----------
EC50: recorded values
test system: Y2065H HCV 1b-377-neo replicon cells; experiment: FRET assay on Y2065H (Y > H) replicon cells; assay type: cell-based; settings: Hepatitis C virus

>>> measured_result("O=C(Nc1ccc(/C=C/c2ccc(NC(=O)[C@@H]3CCCN3C(=O)Cc3ccccc3)cc2)cc1)[C@@H]1CCCN1C(=O)Cc1ccccc1 [Example 3]")
"> 5 µM"

Now look at this one.
Problem: Quick one: EC50 for C[C@H](NC(=O)OCc1ccccc1)C(=O)Nc1ccc(C2S/C(=N\c3cccc(F)c3)N(Cc3ccco3)C2=O)cc1 (some centres unmarked) [Compound A, reference compound] ?
Solution: > 5 µM

----------
system: HCV 1b-377-neo replicon cells; test: HCV replicon FRET assay; format: cell-based; conditions: Hepatitis C virus; HCV replicon; read-out: Activity (EC50)
pEC50: −log10 of the molar value.
Property label: pEC50

// worked examples, pEC50 included
>>> measured_result("CC(Oc1cccc(Cl)c1)C(=O)N1CCC[C@H]1C(=O)Nc1ccc(/C=C/c2ccc(NC(=O)[C@@H]3CCCN3C(=O)C(C)Oc3cccc(Cl)c3)cc2)cc1 (stereo partly drawn)")
"6.00 to 7.00"
>>> measured_result("Cc1ccc(C(=O)N2CCC[C@H]2C(=O)Nc2ccc(/C=C/c3ccc(NC(=O)[C@@H]4CCCN4C(=O)c4ccc(C)nc4)cc3)cc2)cn1")
"6.00 to 7.00"
>>> measured_result("O=C(Nc1ccc(/C=C/c2ccc(NC(=O)[C@@H]3CCCN3C(=O)c3ccccc3F)cc2)cc1)[C@@H]1CCCN1C(=O)c1ccccc1F")
"6.00 to 7.00"
>>> measured_result("O=C(Nc1ccc(/C=C/c2ccc(NS(=O)(=O)Cc3ccccc3)cc2)cc1)[C@@H]1CCCN1C(=O)Cc1ccccc1 [Example 250B]")
"6.00 to 7.00"
>>> measured_result("O=C(Nc1ccc(/C=C/c2ccc(NC(=O)[C@@H]3CCCN3C(=O)Cc3ccncc3)cc2)cc1)[C@@H]1CCCN1C(=O)Cc1ccncc1")
"6.00 to 7.00"

Now look at this one.
Problem: What measured pEC50 is associated with "Cc1nnsc1C(=O)N1CCC[C@H]1C(=O)Nc1ccc(/C=C/c2ccc(NC(=O)[C@@H]3CCCN3C(=O)c3snnc3C)cc2)cc1" on HCV 1b-377-neo replicon cells?
Solution: 7.05 to 10.00

----------
system: HCV 1b-377-neo replicon cells; experiment: HCV replicon FRET assay; assay type: cell-based; conditions: Hepatitis C virus; HCV replicon; read-out: Activity (EC50)
pEC50: −log10 of the molar value.
pEC50: recorded values

// worked examples, pEC50 included
>>> measured_result("O=C(Nc1ccc(/C=C/c2ccc(NC(=O)[C@@H]3CCCN3S(=O)(=O)c3ccccc3OC(F)(F)F)cc2)cc1)[C@@H]1CCCN1S(=O)(=O)c1ccccc1OC(F)(F)F")
"5.00 to 6.00"
>>> measured_result("O=C(Nc1ccc(/C=C/c2ccc(NC(=O)[C@@H]3Cc4ccccc4CN3C(=O)OCc3ccccc3)cc2)cc1)[C@@H]1Cc2ccccc2CN1C(=O)OCc1ccccc1")
"5.00 to 6.00"

Problem: Quick one: pEC50 for "O=C(Nc1ccc(/C=C/c2ccc(NC(=O)[C@@H]3CCCN3C(=O)C3CCC3)cc2)cc1)[C@@H]1CCCN1C(=O)C1CCC1" ?
Solution: 7.05 to 10.00

Problem: How about "O=C(Nc1ccc(/C=C/c2ccc(NC(=O)[C@@H]3CCCN3C(=O)c3cnccn3)cc2)cc1)[C@@H]1CCCN1C(=O)c1cnccn1" ?
Solution: 5.00 to 6.00

Problem: How about "Cn1cnc(CC(=O)N2CCC[C@H]2C(=O)Nc2ccc(/C=C/c3ccc(NC(=O)[C@@H]4CCCN4C(=O)Cc4cn(C)cn4)cc3)cc2)c1" ?
Solution: 7.05 to 10.00

Problem: How about "Cc1nc2sccn2c1C(=O)N1CCC[C@H]1C(=O)Nc1ccc(/C=C/c2ccc(NC(=O)[C@@H]3CCCN3C(=O)c3c(C)nc4sccn34)cc2)cc1" ?
Solution: 7.05 to 10.00
